B1: RSPH3 (parent)
chain: QRLEEQERRHREEKERRKKQQWEI

variants of: B1; test: protein stability index of a GFP-peptide fusion (GPS, HEK-293T) (PSI 1-6); higher = more stable; settings: c terminus: a fixed tail appended;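 note: lentivirally expressed fusions sorted by FACS into six bins by GFP to DsRed ratio, PSI derived from sequencing read proportions per bin multiplied by bin number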
// reported protein stability index for each item listed

| mutation-name | protein stability index |
| --- | --- |
| R16Y | 4.74 |
| R17A | 4.94 |
| E23N | 4.19 |
| Q6I | 4.62 |
| R9D | 4.97 |
| E15C | 3.74 |
| E15G | 4.36 |
| E13Q | 4.52 |
| W22F | 4.97 |
| E12L | 4.42 |
| Q1A | 4.69 |
| Q20R | 4.12 |
| K14T | 4.08 |
| E23S | 3.9 |
| E12D | 5 |
| Q21V | 4.01 |
| H10L | 4.87 |
| E15L | 4.63 |
| K14W | 4.45 |
| K19T | 4.87 |
| K19D | 4.98 |
| R17Q | 4.82 |
